# TGT: Siglec-7 and/or Siglec-9 on fresh purified human NK cells
# EXPERIMENT NOTES: flow cytometry on fresh purified human NK cells, mean of 4 donors
MEASURED PROPERTY: EC50 (µg/mL)
A number alone suffices; assume µg/mL.

BINDER	MEASURED PROPERTY	SCALE UNIT	RECORDED RESULT
mAb4 (antibody, human IgG1, V domains shown) VH: DVQLVESGGDLVKPGGSLKLSCAASGFAFSSYDMSWVRQSPEKRLEWIAHIGSGGGNIYYPDTVKGRFTISRDNAKNTLYLQMRSLKSEDTAMYYCARLIFTTGFYGMDYWGQGTSVTVSS VL: DIQMTQTTSSLSASLGDRVTISCRASQDISSYLNWYQQKPDGTIKLLIYYTSRLHSGVPSRFSGSGSGTDYSLTISNLDQDDIATYFCQQGNALPWTFGGGTKLEIK	EC50	µg/mL	0.61

### Prompt # query: EC50 of entry mAb1 (antibody, human IgG1, V domains shown) VH: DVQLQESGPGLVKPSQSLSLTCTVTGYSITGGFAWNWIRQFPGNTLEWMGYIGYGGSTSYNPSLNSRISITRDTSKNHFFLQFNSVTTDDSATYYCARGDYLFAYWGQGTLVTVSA VL: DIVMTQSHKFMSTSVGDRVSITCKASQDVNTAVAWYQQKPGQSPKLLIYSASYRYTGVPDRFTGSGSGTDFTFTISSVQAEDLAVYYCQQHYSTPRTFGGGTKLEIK
### Response 0.05

### Prompt And mAb6 (antibody, human IgG1, V domains shown) VH: EIQLQQSGPELEKPGASVKISCKASGYSFSDYNMNWVKQSNGKSLEWIGNIDPYYGATSYNQRFKGKATLTVDKSSSTAYMQLKSLTSEDSAVYYCARGDSLFAYWGQGTLVTVSA VL: DIVMTQSQEFMSTSLGDRVSVTCKASQNVGTNVAWYQQKPGQSPKALLYSASSRYSGVPDRFTGSGSGTDFTLTINNMQSEDLAEYFCQQYITYPYTFGGGTKLEIK ?
### Response 1.3
